src = ChEMBL document CHEMBL1137523

# Tested on: L929
# Measurement protocol: Growth inhibition of mouse L929 cells after 5 days by MTT assay
# Type: functional, cell-based
# Condition notes: L929, 120 h
Some molecules, each annotated with its measured IC50.
Kindly answer with a numeric value in µg/mL, unit omitted.

Some solved cases for reference:
Structure smiles string	Experimental target	Experimental endpoint	Quantitative result
COc1ccc(NCc2ccccc2OC)cc1	L929	IC50	25
Cc1ccc(N(CC(C)C)CC(C)C)cc1	L929	IC50	13
COc1ccc(N(Cc2ccccc2)CC(C)C)cc1	L929	IC50	10

// moving on: another record for IC50
Field: IC50 (L929). Entry: CCCCCCCCCN(CC(C)C)c1ccc(OC)cc1
20
